# targetOrSystem: recombinant human MAO-B (monoamine oxidase-B) (Homo sapiens)
# Construct: purchased Sigma-Aldrich
# Sequence (P27338 whole entry): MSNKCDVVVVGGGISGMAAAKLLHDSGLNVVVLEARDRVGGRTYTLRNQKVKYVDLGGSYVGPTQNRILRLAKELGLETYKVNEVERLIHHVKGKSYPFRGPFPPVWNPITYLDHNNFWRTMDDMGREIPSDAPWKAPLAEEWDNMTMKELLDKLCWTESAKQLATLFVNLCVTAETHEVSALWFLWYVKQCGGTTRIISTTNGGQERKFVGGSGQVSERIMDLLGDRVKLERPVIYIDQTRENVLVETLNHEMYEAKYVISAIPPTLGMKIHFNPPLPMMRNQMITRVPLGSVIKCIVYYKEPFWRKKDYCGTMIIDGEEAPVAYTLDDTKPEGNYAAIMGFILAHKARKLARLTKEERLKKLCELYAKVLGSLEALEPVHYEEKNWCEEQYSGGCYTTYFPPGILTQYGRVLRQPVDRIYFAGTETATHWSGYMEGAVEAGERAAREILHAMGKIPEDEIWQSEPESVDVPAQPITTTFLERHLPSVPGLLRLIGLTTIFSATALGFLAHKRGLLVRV
# assayMethodText: Activity evaluation on recombinant human MAO-B (Amplex Red/HRP-coupled assay, 1 mM benzylamine substrate)
# Type: biochemical
# protocolConditions: 1 mM benzylamine, read-out: Inhibitory Activity (IC50, nM) MAO-B
Counter-ions that a name gives are not always drawn.
quantityName: IC50 (nM)
Reply numerically in nM, unit not repeated.

Recorded IC50, per entry:
**Query** Value lookup for IC50; key = NCC(Cn1ncn(Cc2ccc(C#Cc3cnc4c(c3)OCCN4)s2)c1=O)=C(F)F [Example 167, Ditrifluoroacetate]
**Result** 41000

**Query** One more compound: CN1C(=O)CCc2cc(-c3csc(Cn4cnn(CC(CN)=C(F)F)c4=O)c3)ccc21 [Example 152, Trifluoroacetate]
**Result** 13400

**Query** Param item: NCC(Cn1ncn(CCc2ccc(-c3ccc(C(F)(F)F)nc3)s2)c1=O)=C(F)F [Example 175, Trifluoroacetate]
**Result** 14000

Turning now to a further record.
**Query** Reported IC50 for NCC(Cn1ncn(Cc2ccc(-c3ccc4c(c3)NC(=O)OC4)s2)c1=O)=C(F)F [Example 142, Trifluoroacetate] : what is it?
**Result** 32000

---

# targetOrSystem: recombinant human DAO (diamine oxidase) (Homo sapiens)
# Construct: purchased R&D systems
# Sequence (P19801 20-751): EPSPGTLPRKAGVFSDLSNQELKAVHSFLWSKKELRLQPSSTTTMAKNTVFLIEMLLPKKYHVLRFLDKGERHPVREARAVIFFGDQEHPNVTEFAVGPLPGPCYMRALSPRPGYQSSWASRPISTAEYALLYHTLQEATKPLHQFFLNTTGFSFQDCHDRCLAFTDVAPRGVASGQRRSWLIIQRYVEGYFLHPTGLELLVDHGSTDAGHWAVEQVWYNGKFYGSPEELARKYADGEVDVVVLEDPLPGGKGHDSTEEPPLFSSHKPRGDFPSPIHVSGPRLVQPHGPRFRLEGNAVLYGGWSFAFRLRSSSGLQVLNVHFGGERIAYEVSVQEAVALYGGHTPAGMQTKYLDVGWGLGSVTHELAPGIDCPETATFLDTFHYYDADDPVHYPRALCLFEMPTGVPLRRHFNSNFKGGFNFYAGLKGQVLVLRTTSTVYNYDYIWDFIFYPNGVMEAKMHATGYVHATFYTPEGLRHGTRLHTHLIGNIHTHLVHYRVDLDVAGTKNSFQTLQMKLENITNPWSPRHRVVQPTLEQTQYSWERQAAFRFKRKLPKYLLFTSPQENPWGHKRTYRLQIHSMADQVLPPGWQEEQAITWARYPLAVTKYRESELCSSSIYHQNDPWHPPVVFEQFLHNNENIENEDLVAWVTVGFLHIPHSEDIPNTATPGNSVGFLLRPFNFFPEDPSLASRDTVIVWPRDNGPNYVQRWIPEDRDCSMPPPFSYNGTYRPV
# assayMethodText: Activity evaluation on recombinant human DAO (Amplex Red/HRP-coupled assay, 1 mM putrescine substrate)
# Format: biochemical
# protocolConditions: 1 mM putrescine substrate, read-out: Inhibitory Activity (IC50, nM) DAO
Structures can show the parent of a compound that is named as a salt.
quantityName: IC50 (nM)
Output spec: scalar in nM, unitless text.

**Query** Name the reported IC50 value associated with the molecule CS(=O)(=O)c1ccc(-c2cccc(Cn3cnn(CC(CN)=C(F)F)c3=O)c2)cc1 [Example 272, Trifluoroacetate]
**Result** 4330

**Query** // same read-out, input: COc1cc(-c2cnc(-n3cnn(CC(CN)=C(F)F)c3=O)c(C)c2)cc(OC)c1OC [Example 224, Trifluoroacetate]
**Result** 5500

**Query** Please give the result for CCn1cc(-c2csc(Cn3cnn(CC(CN)=C(F)F)c3=O)c2)ccc1=O [Example 193, Trifluoroacetate] too.
**Result** 8700

**Query** Another molecule: NCC(Cn1ncn(Cc2cccc(-c3ccc4c(c3)OCO4)c2)c1=O)=C(F)F [Example 274, Trifluoroacetate]
**Result** 54100

**Query** Okay, and Cc1cc(-c2ccc(C(=O)N3CCOCC3)cc2)cnc1-n1cnn(CC(CN)=C(F)F)c1=O [Example 236, Trifluoroacetate] ?
**Result** 6700

---

# targetOrSystem: recombinant human VAP-1 (Homo sapiens)
# Construct: purchased R&D systems
# assayMethodText: Activity evaluation on recombinant human VAP-1 (Amplex Red/HRP-coupled hydrogen peroxide assay, benzylamine substrate)
# Format: biochemical
# protocolConditions: recombinant human VAP-1, benzylamine substrate; read-out: Inhibitory Activity (IC50, nM) human VAP-1
# Experimental: The compounds according to the present technology were evaluated in terms of activity on recombinant human VAP-1 (R&D systems) by measuring the level of hydrogen peroxide in horseradish peroxidase (HRP)-coupled reaction using Amplex Red Hydrogen Peroxide Assay Kit (Molecular Probes, Invitrogen, USA). […] The inhibitory effect of the compounds was measured as a decrease (%) in the signal rate as compared to the control group without any inhibitor (only diluted DMSO). […]
Where a name gives a salt, the structure may show the parent alone.
quantityName: IC50 (nM)
# value in nM; strip the unit string

**Query** Item under review: NCC(Cn1ncn(Cc2ccc(-c3ccc4c(c3)OCO4)cc2)c1=O)=C(F)F [Example 268, Trifluoroacetate] . Reported IC50?
**Result** 2.1

**Query** Again, but for Cc1c(-c2ccc3c(c2)OCO3)cccc1-n1cnn(CC(CN)=C(F)F)c1=O [Example 257, Trifluoroacetate]
**Result** 2.4

**Query** Here is the next molecule: Cn1cc(-c2csc(Cn3cnn(CC(CN)=C(F)F)c3=O)c2)ccc1=O [Example 190, Trifluoroacetate]
**Result** 1.4

**Query** // same read-out, input: Cc1cc(-c2cccc(-c3nc[nH]n3)c2)cnc1-n1cnn(CC(CN)=C(F)F)c1=O [Example 239, trifluoroacetate]
**Result** 2.7

**Query** Proceed to NCC(Cn1ncn(-c2cccc(-c3ccc(C(=O)N4CCOCC4)cc3)n2)c1=O)=C(F)F [Example 214, Trifluoroacetate]
**Result** 1.7

Next:
**Query** // returns reported IC50 for input CCn1cc(-c2cccc(Cn3cnn(CC(CN)=C(F)F)c3=O)c2)ccc1=O [Example 277, Trifluoroacetate]
**Result** 2.5

**Query** Then this molecule: Cc1cc(-c2ccc3cn[nH]c3c2)cnc1-n1cnn(CC(CN)=C(F)F)c1=O [Example 233, Trifluoroacetate]
**Result** 0.2

**Query** Thanks! And Cc1cc(-c2ccc3sc(N)nc3c2)cnc1-n1cnn(CC(CN)=C(F)F)c1=O [Example 226, Trifluoroacetate] ?
**Result** 0.5

**Query** Another molecule to look at: CN(C)c1ccc(-c2cccc(Cn3cnn(CC(CN)=C(F)F)c3=O)c2)cn1 [Example 273, Trifluoroacetate]
**Result** 1.8

**Query** // next record CN(C)c1ccc(-c2ccc3cc(Cn4cnn(CC(CN)=C(F)F)c4=O)sc3c2)cn1 [Example 200, Trifluoroacetate]
**Result** 1.9

---

We begin with a simple list: items and their reported IC50.
# targetOrSystem: recombinant human VAP-1 (Homo sapiens, UniProt Q16853)
# Construct: purchased R&D systems
# Sequence (Q16853 1-763): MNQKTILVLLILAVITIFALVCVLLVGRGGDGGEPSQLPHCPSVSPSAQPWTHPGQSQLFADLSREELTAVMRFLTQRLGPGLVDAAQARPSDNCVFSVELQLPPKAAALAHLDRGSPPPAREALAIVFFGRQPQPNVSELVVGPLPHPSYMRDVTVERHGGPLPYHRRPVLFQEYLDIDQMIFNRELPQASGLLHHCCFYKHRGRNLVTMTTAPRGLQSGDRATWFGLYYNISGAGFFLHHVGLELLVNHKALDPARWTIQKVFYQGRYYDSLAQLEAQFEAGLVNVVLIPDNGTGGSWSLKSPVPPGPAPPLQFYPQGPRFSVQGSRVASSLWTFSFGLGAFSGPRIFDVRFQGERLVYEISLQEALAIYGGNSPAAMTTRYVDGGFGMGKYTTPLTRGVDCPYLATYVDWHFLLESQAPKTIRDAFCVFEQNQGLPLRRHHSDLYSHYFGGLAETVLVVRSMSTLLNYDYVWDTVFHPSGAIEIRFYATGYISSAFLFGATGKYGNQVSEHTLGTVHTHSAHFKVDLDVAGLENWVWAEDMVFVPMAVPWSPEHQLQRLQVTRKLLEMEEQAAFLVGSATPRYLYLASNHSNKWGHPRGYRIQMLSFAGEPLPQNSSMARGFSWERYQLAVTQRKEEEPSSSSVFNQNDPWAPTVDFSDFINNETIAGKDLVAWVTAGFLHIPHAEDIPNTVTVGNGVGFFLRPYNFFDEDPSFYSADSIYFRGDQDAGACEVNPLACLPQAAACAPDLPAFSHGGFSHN
# assayMethodText: Activity evaluation on recombinant human VAP-1 (Amplex Red/HRP-coupled hydrogen peroxide assay, benzylamine substrate)
# Type: biochemical
# protocolConditions: recombinant human VAP-1; 30 min preincubation at 37° C.; 1 mM benzylamine; read-out: Inhibitory Activity (IC50, nM) human VAP-1
Where a name gives a salt, the structure may show the parent alone.
Supply the numeric figure in nM, leaving out any unit text.

Use the examples below as a reference point.
**Query** Param item = NCC(Cn1ncn(Cc2ccc(C#Cc3cnc4c(c3)OCC(=O)N4)s2)c1=O)=C(F)F [Example 170, Trifluoroacetate] ; retrieve measured IC50.
**Result** 0.8

**Query** Please do the same for NCC(Cn1ncn(Cc2ccc(C#Cc3cnc4c(c3)NC(=O)CO4)s2)c1=O)=C(F)F [Example 169, Trifluoroacetate] as well.
**Result** 0.2

**Query** Try this compound next: NCC(Cn1ncn(Cc2ccc(C#Cc3ccc4c(n3)OCCN4)s2)c1=O)=C(F)F [Example 168, Ditrifluoroacetate]
**Result** 1

**Query** How about this compound: CN(C)c1ccc(-c2ccc(-n3cnn(CC(CN)=C(F)F)c3=O)cn2)cn1 [Example 41, Trifluoroacetate]
**Result** 0.2

**Query** One more compound: NCC(Cn1ncn(Cc2ccc(Br)s2)c1=O)=C(F)F [Example 97, Trifluoroacetate]
**Result** 1.3

**Query** Now this one: NCC(Cn1ncn(Cc2ccc(-c3ccc(N4CCNCC4)nc3)s2)c1=O)=C(F)F [Example 114, Ditrifluoroacetate]
**Result** 4.9

**Query** Now give it for CCOc1ncc(-c2ccc(Cn3cnn(CC(CN)=C(F)F)c3=O)s2)cn1 [Example 117, Trifluoroacetate] too.
**Result** 1.1

**Query** Entry NCC(Cn1ncn(Cc2ccc(C#Cc3cnc4c(c3)OCCN4)s2)c1=O)=C(F)F [Example 167, Ditrifluoroacetate] please
**Result** 2.1

**Query** Also, NCC(Cn1ncn(-c2cnc(-c3ccc4c(c3)OCO4)cn2)c1=O)=C(F)F [Example 93, Trifluoroacetate] please.
**Result** 0.3

**Query** Can you check NCC(Cn1ncn(-c2ccc(-c3ccc4c(c3)OCO4)c(F)c2)c1=O)=C(F)F [Example 28, Trifluoroacetate] next?
**Result** 1.2

Next:
**Query** Request the reported IC50 associated with CCn1cc(-c2ccnc(-n3cnn(CC(CN)=C(F)F)c3=O)c2)cn1 [Example 60, Trifluoroacetate]
**Result** 1.3
